Recorded values, source the supplement of paper PMC11208160.

assay.method.text: recombinant barcode read abundance after kanamycin selection (control-corrected) (log10(CPM+1)); higher = more efficient recombination; sequences stand for … in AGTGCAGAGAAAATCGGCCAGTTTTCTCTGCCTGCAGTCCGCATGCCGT…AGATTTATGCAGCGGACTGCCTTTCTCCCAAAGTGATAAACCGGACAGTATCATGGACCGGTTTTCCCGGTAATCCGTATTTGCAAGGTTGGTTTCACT; site = the 11-nt target;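 note: IS621 recombinase and bridge RNA in Escherichia coli cells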
endpoint: recombinant barcode read abundance (log10)
// keep it numeric: no unit symbol after the value

Check out these entries, answers already filled in.
GACGGACCTTGGGTTCTAACCTGTTGCAT (site TGAAAGACTCG)	0.114
ATCCTTACTTGGGTTCTAACCTGTTGCCT (site AGCCTTACTAG)	0.156

Item: CGGACGCCTTGGGTTCTAACCTGTTGCCT (site CGGACGCCTAG) | recombinant barcode read abundance (log10): 0.892

So, CAAACTCCTTGGGTTCTAACCTGTTGCTT (site CAAACTCCTAG) ? Its recombinant barcode read abundance (log10) was 0.221

Lab note: measured recombinant barcode read abundance (log10) of AATGCTCCTTGGGTTCTAACCTGTTGCGT (site AATGCTCCTAG) was 0.419
